Measured LIPASE by item
species on record: Rattus norvegicus; experiment: DrugMatrix - Regimen: Daily Repeat; format: toxicity, organism-based, Sprague-Dawley; set-up: regimen Daily Repeat, gender Male, age 6-8 weeks; conditions: in vivo, po, 0 mg/kg, 120 h, tissue Plasma, route oral GAVAGE, dose level Control, time 5 day, vehicle .5 % CMC
Quick note: give the figure in u/L, leave out the unit.

Known results for molecules:
COc1c(C)c2c(c(O)c1C/C=C(\C)CCC(=O)OCCN1CCOCC1)C(=O)OC2 [MYCOPHENOLATE MOFETIL]
9.5
CCOC(=O)OC(C)OC1=C(C(=O)Nc2ccccn2)N(C)S(=O)(=O)c2ccccc21 (centres undefined)
8.67
COC(=O)c1ccc(O)cc1
8.83

Now turn to the next molecule.
[ask] Please look up its LIPASE: CCc1ccc(C(=O)C(C)CN2CCCCC2)cc1 (centres undefined)
[reply] 9.5
